Data origin, for the record: the RNAGym collection of RNA variant scans (doi:10.7554/elife.80360)

Measured self-cleavage of individual entries
B1: Twister Ribozyme (parent)
chain: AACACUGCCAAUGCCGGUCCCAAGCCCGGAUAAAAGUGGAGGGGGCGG

variants of: B1; assay: self-cleavage, relative activity (ratio to wild type); higher = more cleavage; co-transcriptional
No unit in the answer, only the number.

See these solved cases before continuing.
C8U U37A    0.307
C3U G41C    0.099
C26G G38U    0.0977
G7A G17U    0.103

Query C27G C46G yields self-cleavage of 0.1
